Target: T1, uniformly 15N,2H-labelled 6His-MAP kinase p38α (human, UniProt Q16539 2-360, limits assumed, uniformly 15N,2H-labelled)
T1 construct: not shown: 6His tag
T1 sequence (Q16539 2-360 limits assumed): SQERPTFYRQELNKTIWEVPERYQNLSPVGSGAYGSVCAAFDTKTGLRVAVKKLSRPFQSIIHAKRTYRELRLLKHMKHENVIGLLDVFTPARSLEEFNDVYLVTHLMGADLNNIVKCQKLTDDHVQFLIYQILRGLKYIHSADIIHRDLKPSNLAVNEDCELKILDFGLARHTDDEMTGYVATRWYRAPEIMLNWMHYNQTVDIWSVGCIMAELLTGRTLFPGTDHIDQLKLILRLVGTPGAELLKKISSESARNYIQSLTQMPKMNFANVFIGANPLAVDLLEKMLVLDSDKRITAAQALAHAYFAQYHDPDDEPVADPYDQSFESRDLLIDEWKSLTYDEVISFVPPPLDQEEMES
Test: NMR 1H-15N TROSY-HSQC titration, chemical shift changes in slow exchange
Where no end group is shown, it is not given here.
measured_attribute: Kd

Query :: Kindly indicate its recorded Kd. Item: Ac-HKSRALLIFQKIMWLRRQ (Synthetic peptide, all L-amino acids, peptide bonds throughout, N-acetylated; also called BB2702 peptide) [BB2702 (N-acetylated peptide HKSRALLIFQKIMWLRRQ)]
Result :: < 1000 nM
